test system: BT-549 breast; assay: NCI tumour cell line growth inhibition, 48 h
*1 amine or outer side, *2 acyl side, *3 side chain or, on linkers, in order; H or OH if unused. Where a SMILES comes first, the peptide text is derived from it. [ ]: non-standard residue; d: D form. The star is where a group is joined. X33 = C=CCC(O[*:1])C(=O)[*:2]; NMeV = CN[CH](C(=O)O)C(C)C; NMeA = CN[CH](C)C(=O)O; Boc = CC(C)(C)OC(=O)*; OBn = c1ccc(CO*)cc1; βAla = NCCC(=O)O
Entries and their measured TGI follow.

Before answering, review these 2 worked examples.
compound: CC(NC(=O)C(Cc1ccccc1)NC(=O)C(Cc1ccccc1)NC(=O)OC(C)(C)C)C(=O)OCc1ccccc1 (stereo not drawn) (Boc-Phe-Phe-Ala-OBn; configuration not given here)
recorded result: > 100 µM

compound: CC1=N[C@](C)(C2CC3C=CC2C3=O)COC1=O (stereo partly drawn)
recorded result: > 100 µM

Qu. Query (compound): O=C(CNC(=O)OCc1ccccc1)NCCCCC(NC(=O)OCc1ccccc1)C(=O)NC(CCCCNC(=O)CNC(=O)OCc1ccccc1)C(=O)OCc1ccccc1 (stereo not drawn) ; field requested: TGI
Ans. > 62.5 µM

Qu. Query (compound): COC(=O)C1(Cc2ccc3c(c2)CCC3)Cc2ccc3c(c2C1)CCC3 (stereo not drawn) ; field requested: TGI
Ans. 56.9 µM

Qu. Query (compound): CC(C)C/C=C/C1=NN(c2cccc(S(=O)(=O)O)c2)C2(C1)SCC(=O)N2c1nc2ccccc2s1 (stereo not drawn) ; field requested: TGI
Ans. > 100 µM

Qu. Query (compound): c1ccc(P(CCP(CCP(c2ccccc2)c2ccccc2)c2ccccc2)CCP(c2ccccc2)c2ccccc2)cc1 (stereo not drawn) ; field requested: TGI
Ans. > 10 µM

Qu. Query (compound): C=CCC1OC(=O)CCNC(=O)C(C)N(C)C(=O)C(C(C)C)N(C)C(=O)C(C(C)CC)NC(=O)C2CCCN2C1=O (stereo not drawn) (cyclo([X33]PI[NMeV][NMeA][βAla]); configuration not given here) ; field requested: TGI
Ans. > 100 µM

Qu. Query (compound): Cc1ccc2c(c1)C(=O)c1c-2n(CCCBr)c(=O)c2cc([N+](=O)[O-])ccc12 ; field requested: TGI
Ans. > 100 µM

Qu. Query (compound): CC(C)(C)OC(=O)N(CCNS(=O)(=O)c1cccc2cnccc12)CCC(=O)ON1C(=O)CCC1=O ; field requested: TGI
Ans. > 100 µM

Qu. Query (compound): O=C1NC(=O)C(COCc2ccccc2)C2=C1SCCC2 (stereo not drawn) ; field requested: TGI
Ans. > 100 µM

Qu. Query (compound): CC(C)(C)OC(=O)N/N=C(/N)Cc1ccccc1 ; field requested: TGI
Ans. > 100 µM

Qu. Query (compound): O=C1C(=C(I)I)c2ccccc2-c2ccccc21 ; field requested: TGI
Ans. 15.5 µM

----------
test system: A549 NSCLC; test: NCI tumour cell line growth inhibition, 48 h
Entries and their measured TGI follow.
Write it as a number; the unit µM goes unstated.

compound: C=C1C(=O)O[C@H]2[C@H]3O[C@@H](C[C@@H]12)[C@@]1(C)CC[C@H](O1)C(C)=CCC[C@H]3C
unit name: µM
TGI: 6.96
//
compound: CCOC(=O)c1nc(Nc2ccc(Cl)cc2)c2ccccc2n1
unit name: µM
TGI: 26.2

Qu. Query (compound): C=C1CCC2[C@@H](CCC3[C@]2(C)CCC[C@]3(C)C(=O)OC)C1CCO (stereo not given in full) ; field requested: TGI
Ans. 32.5

Qu. Query (compound): C=C1CCC2C3(C)COC(c4ccccc4Br)OC3CCC2(C)C1C/C=C1/C(=O)OCC1OC(C)=O (stereo not given) ; field requested: TGI
Ans. 5.26

----------
tested on: NCI-H23 lung; assay: NCI tumour cell line growth inhibition, 48 h
Entries and their measured log10(TGI) follow.
// units: µM (pre-log); metric: TGI; scale: log10

Before answering, review these 4 worked examples.
chemical structure: CCN(CC)c1ccc(C(=N)c2ccc(N(C)C)cc2)cc1
log10(TGI): 0.50

chemical structure: Cc1cc2nc(-c3c(F)cccc3F)n(Cc3c(F)cccc3F)c2cc1C
log10(TGI): 1.60

chemical structure: O=C(CN(/C=C/C(=O)C(F)(F)F)c1ccccc1)c1ccc(Cl)c(Cl)c1
log10(TGI): 1.43

chemical structure: c1ccc(C2OCCO2)c(OCCOc2cc(OCCOc3ccccc3C3OCCO3)c(OCCOc3ccccc3C3OCCO3)cc2OCCOc2ccccc2C2OCCO2)c1
log10(TGI): 1.44

In the following, a different molecule is considered.
Qu. Query (molecule): CSc1ccccc1C#Cc1ccccc1C#CCCCCO ; field requested: log10(TGI)
Ans. 1.52

----------
system: HCT-15 colon; experiment: NCI tumour cell line growth inhibition, 48 h
property name: TGI

Before answering, review these 5 worked examples.
molecule: Cc1ccc(Sc2ccc(C)cc2[N+](=O)[O-])c([N+](=O)[O-])c1
study target: HCT-15 colon
property name: TGI
recorded result: > 100 µM
--
molecule: CSC1(SC2=NCCN2)SC2(NCCN2)S1
study target: HCT-15 colon
property name: TGI
recorded result: 41.2 µM
--
molecule: CN1CCN(c2cc(-c3cc4ccccc4o3)oc(=O)c2C#N)CC1
study target: HCT-15 colon
property name: TGI
recorded result: > 100 µM
--
molecule: CC12CC(OC(=O)[C@]1(C)O)[C@@H]([C@]1(O)CC[C@H]3[C@@H]4C[C@H]5O[C@]56[C@@H](O)C=CC(=O)[C@]6(C)[C@H]4CC[C@@]31C)C2 (stereo partly specified)
study target: HCT-15 colon
property name: TGI
recorded result: 25.3 µM
--
molecule: CC(=O)Nc1ccc(/C=C/C(=O)c2sc(-c3nc(C)c(C(=O)/C=C/c4ccc(NC(C)=O)cc4)s3)nc2C)cc1
study target: HCT-15 colon
property name: TGI
recorded result: > 100 µM

Qu. Query (molecule): CC(CCC(=O)O)C1CCC2C3C(O)CC4CC(O)CCC4(C)C3CC(O)C12C (stereo unspecified) ; field requested: TGI
Ans. > 100 µM

Qu. Query (molecule): COC(=O)C1=C(CCCCO[Si](C)(C)C(C)(C)C)NC(=O)N2[C@@H](CCOCc3ccccc3)CC[C@H]12 ; field requested: TGI
Ans. 43.9 µM

Qu. Query (molecule): CCOC(=O)/C=C(\C(=O)OCC)n1ccc(=O)n(CC(=O)OCC)c1=O ; field requested: TGI
Ans. 4.4 µM

Qu. Query (molecule): Cc1n[nH]c(=O)n1/N=C\CC/C=N\n1c(C)n[nH]c1=O ; field requested: TGI
Ans. > 100 µM

Qu. Query (molecule): O=C(O)CC1(CC(=O)O)Nc2ccccc2SC1=O ; field requested: TGI
Ans. > 100 µM

Qu. Query (molecule): CCN(CC)CC(C(=O)Nc1c(C)cccc1C)/C(C)=N\NC(=O)c1ccncc1 (stereo unspecified) ; field requested: TGI
Ans. > 100 µM

Qu. Query (molecule): CS(=O)(=O)Nc1ccc(N=Cc2c(O)[nH]c3ccccc23)cc1 ; field requested: TGI
Ans. > 25 µM

Qu. Query (molecule): O=c1[nH]c(-c2ccc(-c3nc4cc([N+](=O)[O-])ccc4c(=O)[nH]3)cc2)nc2cc([N+](=O)[O-])ccc12 ; field requested: TGI
Ans. > 100 µM

Qu. Query (molecule): C=CC1C(OC2OC(CO)C(O)C(O)C2O)OC=C(C(=O)OC)C1CC=O (stereo unspecified) ; field requested: TGI
Ans. > 100 µM

----------
Entries and their measured TGI follow.
test system: K-562 leukemia; test: NCI tumour cell line growth inhibition, 48 h

Before answering, review these 3 worked examples.
molecule: Nc1n[nH]c2ccc([C@@H]3Nc4ccc5[nH]ncc5c4[C@H]4C5C=CC(C5)[C@@H]34)cc12 (some centres undefined)
TGI: > 100 µM
--
molecule: O=C1OCC/C1=C/c1ccc(N=Nc2c(O)ccc3ccccc23)cc1
TGI: > 100 µM
--
molecule: COC(=O)C1=C(C)NC(C)=C(C(=O)OC)C1c1cccc(NO)c1
TGI: > 100 µM

Qu. Enter reported TGI observed with K-562 leukemia for COc1ccc(-c2nn(-c3cccc(Cl)c3)cc2-c2cc(-c3ccccc3)nc(N)n2)cc1
Ans. 5.37 µM

Qu. Enter reported TGI observed with K-562 leukemia for CCCCCC[C@H]1C(=O)O[C@H](C)[C@H](NC(=O)c2cccc(NC=O)c2OC)C(=O)O[C@@H](C)[C@@H]1OC(=O)CC(C)C (tested in a mixture with another compound)
Ans. > 100 µM

Qu. Enter reported TGI observed with K-562 leukemia for CCOC(=O)c1nc(-c2ccccc2)oc1OCC
Ans. > 100 µM

Qu. Enter reported TGI observed with K-562 leukemia for O=C(O)CC1(CC(=O)O)Nc2ccccc2SC1=O
Ans. > 100 µM

Qu. Enter reported TGI observed with K-562 leukemia for C/C(CC1SCCCS1)=C(/C)CC1SCCCS1
Ans. > 100 µM

Qu. Enter reported TGI observed with K-562 leukemia for CCNCCNc1cc(C2CCCCC2)c(C#N)c2nc3ccccc3n12
Ans. 4.39 µM
